- System: NCI-H522 lung
- procedure details: NCI tumour cell line growth inhibition, 48 h
readout: TGI

compound	observed value
CC(=O)C(C(=N)C#N)C(=O)Nc1ccccc1 (centres undefined)	> 100 µM
COc1ccc(-n2c(-c3ccc(NC(=O)CCCl)cc3)nnc2-c2cc(OC)c(OC)c(OC)c2)cc1	> 14.3 µM
CNc1nc2c(C)ccc3nc(N(C)C)nc-3c2n1C	> 10 µM

Problem: Returns the measured TGI for the input compound. Input: COc1cccc(-c2nc(-c3ccc(NS(=O)(=O)c4ccccc4)cc3)[nH]c2-c2ccnc(Br)c2)c1
Solution: > 100 µM

Problem: Returns the measured TGI for the input compound. Input: O=C(O)C(Cc1ccccc1-c1ccccc1)C(=O)O
Solution: > 100 µM

Problem: Returns the measured TGI for the input compound. Input: CCNCCNc1cc(-c2ccc(Cl)cc2)c(C#N)c2nc3ccccc3n12
Solution: 3.84 µM

###

Listing: TGI of selected molecules
- Tested on: HCT-15 colon
- procedure details: NCI tumour cell line growth inhibition, 48 h

Please review the following examples before continuing.
> print(dat)
                                   molecule  readout  observed.value
1  Cc1c2cc[n+](C)cc2c(C)c2c1[nH]c1ccc(OC(C)C)cc12      TGI        > 100 µM
2  CC1=CC(=C(c2ccc(N)c(C)c2)c2ccc(N)c(C)c2)C=CC1=N      TGI       > 61.4 µM
3  CCCCCCCCCCCCOCCCCCCCCC/C=C/c1ccc2c(c1)OCCOCCOCCOCCO2      TGI        > 100 µM
4    N#Cc1c2ccccc2c2nnc3cc(C(F)(F)F)ccc3n12      TGI        > 100 µM
5  Cc1c2[nH]c3ccc(Br)cc3c2c(C)c2[nH]ccc(=O)c12      TGI         30.4 µM
6  Cc1ccc(C)c(NC(=O)CC2C(=O)Nc3ccccc3S2(=O)=O)c1 (stereo unspecified)      TGI        > 100 µM
7  CC(C)(C)c1cc(C(C)(C)C)c(P=C(Cl)Cl)c(C(C)(C)C)c1 (stereo unspecified)      TGI        > 100 µM
8  COC(=O)C1=C(O)C(C(=O)OC)[C@]2(O)[C@H](C(=O)OC)[C@H]1C[C@@H](c1ccc(Cl)cc1Cl)[C@H]2C(=O)OC (stereo partly specified)      TGI         27.6 µM

Problem: Returns the measured TGI for the input molecule. Input: Nc1nc(SCC(=O)O)[nH]c(=O)c1N
Solution: > 100 µM

###

- System: SF-539 CNS
- procedure details: NCI tumour cell line growth inhibition, 48 h
readout: GI50

Please review the following examples before continuing.
> print(dat)
                                     smiles  observed.value
1  Cn1cc(-c2nc(-c3c[nH]c4ncccc34)cs2)c2cc(Cl)ccc21         12.1 µM
2  COC(=O)c1ccc(-c2nc3cc(F)c(F)cc3nc2C#N)cc1         10.7 µM
3  COc1c(O)cc2oc3cc(O)c(CC=C(C)C)c(O)c3c(=O)c2c1C/C=C(\C)CCC=C(C)C         6.11 µM

Problem: # value lookup — system SF-539 CNS, readout GI50, item COc1ccc(-c2nc3sccn3c2/C=C/C(=O)c2cc(OC)c(OC)c(OC)c2)cc1OC
Solution: 1.78 µM

Problem: # value lookup — system SF-539 CNS, readout GI50, item CCOC(=O)c1sc2ncn(Cc3cccc(Cl)c3)c(=O)c2c1C
Solution: 19.3 µM

Reference source: PubChem BioAssay (NCI)
